# Lookup of reported pIC50 keyed by entry
Test system: IFNγ
Assay: Cytokine assay: IFNγ release from PHA-L stimulated human PBMCs
Format: cell-based
pIC50: −log10 of the molar value.
measured endpoint: pIC50

compound: CCOc1ccc(-c2cncc(C3COB(O)C3)c2)cc1OCC (single isomer, unassigned) [Example 98]
value observed: 8.57
//
compound: COc1ccc(-c2cncc(C3COB(O)C3)c2)c(F)c1OC (centres unmarked) [Example 108]
value observed: 8.36
//
compound: CCCOc1cc(-c2nc(C3COB(O)C3)cc(C(F)(F)F)n2)ccc1OC (centres unmarked) [Example 124]
value observed: 7.99
//
compound: CCOc1cc(-c2cncc(C3COB(O)C3)c2)c(C)cc1OC (single isomer, unassigned) [Example 70]
value observed: 8.55
//
compound: CCOc1cc(-c2cncc(C3COB(O)C3)c2C(F)F)ccc1OC (single isomer, unassigned) [Example 140]
value observed: 8.49
//
compound: CCOc1cc(-c2cncc(C3COB(O)C3)c2)cc(F)c1OC (single isomer, unassigned) [Example 12]
value observed: 9.00
//
compound: COc1ccc(-c2cncc(C3COB(O)C3)c2)cc1OCCO (single isomer, unassigned) [Example 8]
value observed: 8.92
//
compound: CCCOc1cc(-c2cncc(C3COB(O)C3)c2)ccc1OCC (single isomer, unassigned) [Example 106]
value observed: 8.47

---

Tested on: IFNγ
Assay: Cytokine assay: IFNγ release from PHA-L stimulated human PBMCs
Format: cell-based
Below is a list of entries, each paired with its recorded log10(IC50) value.
measured endpoint: log10(IC50) (log10 of the value in nM)

compound: CCCOc1cc(-c2cncc(C3COB(O)C3)c2)ccc1SC (centres unmarked) [Example 113]
log10(IC50): 0.58
--
compound: COc1ccc(-c2cncc(C3COB(O)C3)c2)cc1OC1CC1 (single isomer, unassigned) [Example 7]
log10(IC50): -0.15
--
compound: CCOc1c(OC)ccc(-c2cncc(C3COB(O)C3)c2)c1C(F)F (single isomer, unassigned; (-)) [Example 10]
log10(IC50): 0.21
--
compound: COc1ccc(-c2cncc(C3COB(O)C3)c2)cc1OC1CC1 (single isomer, unassigned; enantiomer 1) [Example 193]
log10(IC50): 0.33
--
compound: COc1ccc(-c2cncc(C3COB(O)C3)c2)c(F)c1OC (centres unmarked) [Example 109]
log10(IC50): 0.80
--
compound: CCCOc1cc(-c2nc(C3COB(O)C3)ns2)ccc1OC (centres unmarked)
log10(IC50): 0.23
--
compound: CCOc1cc(-c2cncc(C3COB(O)C3)c2C(F)F)ccc1OC (single isomer, unassigned) [Example 139]
log10(IC50): -0.40
--
compound: COc1ccc(-c2cncc(C3COB(O)C3)c2)cc1OC (single isomer, unassigned) [Example 1]
log10(IC50): 0.47

---

System: IFNγ
Assay: Cytokine assay: IFNγ release from PHA-L stimulated human PBMCs
Type: cell-based
Details: Homo sapiens, PBMC
Protocol: Cytokine inhibitory activity is determined by measuring the effect of test agent on the release of the cytokines IL-4, IL-13 and IFNγ from human peripheral blood mononuclear cells (PBMCs) stimulated with the T-cell mitogen phytohemagglutinin-L (PHA-L). […]
Label key: true means IC50 under 4 nM; false means IC50 of 4 nM or more.

compound: COc1ccc(-c2cccc(C3COB(O)C3)c2)cc1OCCCF (stereo not shown)
label: true
//
compound: CCCOc1cc(-n2ccc(C3COB(O)C3)n2)ccc1OC (stereo not shown)
label: false
//
compound: CCCOc1cc(-c2cncc(C3(CO)COB(O)C3)c2)ccc1OC (stereo not shown)
label: true
//
compound: CCCOc1cc(-c2cc(CO)cc(C3COB(O)C3)n2)ccc1OC (stereo not shown)
label: false
//
compound: CCOc1cc(-c2cncc(C3COB(O)C3)c2C)ccc1OC (stereo not shown) [Example 53]
label: true
//
compound: CCOc1nc(-c2cccc(C3COB(O)C3)c2)ccc1OC (stereo not shown)
label: true
//
compound: CCOc1cc(-c2cncc(C3COB(O)C3)c2)c(C)cc1OC (stereo not shown)
label: true
//
compound: CCOc1c(OC)ccc(-c2cncc(C3COB(O)C3)c2)c1C(F)F (stereo not shown)
label: true
//
compound: CCOc1nc(-c2cccc(C3=CB(O)OC3)c2)ccc1OC
label: false
//
compound: COc1ccc(-c2cncc(C3COB(O)C3)c2)cc1OCCF (stereo not shown)
label: true
//
compound: COc1ccc(-c2cc(C3COB(O)C3)ccn2)cc1OC1CCCC1 (stereo not shown) [Example 210]
label: true
//
compound: CCCOc1cc(-c2nc(C(C)O)cc(C3COB(O)C3)n2)ccc1OC (stereo not shown)
label: false
//
compound: CCCOc1cc(-c2cncc(C3COB(O)C3)c2)ccc1OCC (stereo not shown) [Example 104]
label: false
//
compound: CCCOc1cc(-c2cncc(C3COB(O)C3)c2)ccc1OC(F)F (single isomer, unassigned) [Example 17]
label: true
//
compound: COc1ccc(-c2cccc(C3COB(O)C3)c2)cc1OCC(C)C (stereo not shown)
label: false
//
compound: CSc1ccc(-c2cncc(C3COB(O)C3)c2)cc1OC1CCCC1 (stereo not shown)
label: false
//
compound: CCOc1cc(-c2cncc(C3COB(O)C3)c2)cc(Cl)c1OC (stereo not shown)
label: true
//
compound: CCCOc1cc(-c2nc(COC)cc(C3COB(O)C3)n2)ccc1OC (stereo not shown) [Example 102]
label: true
//
compound: CCCOc1c(OC)ccc(-c2cccc(C3COB(O)C3)c2)c1F (stereo not shown)
label: true
